Here the recorded melting point is given for each entry.
Where a name gives a salt, the structure may show the parent alone.

Known results for molecules:
molecule: COc1cc2[nH]c(N(C)Cc3cccc(OCC(=O)O)c3)nc(=O)c2c(C)c1OC
melting point: > 300 °C

molecule: COc1cc2[nH]c(N(C)Cc3cccc(CC4CCN(C)CC4)c3)nc(=O)c2c(OC)c1OC (as salt: HCl)
melting point: 175 to 195 °C

molecule: COc1cc2[nH]c(N(C)Cc3cccc(N4CCNC4=O)c3)nc(=O)c2c(OC)c1OC
melting point: 130 to 133 °C

Switching to the query record.
## Input Entry COc1cc2[nH]c(N(C)Cc3cccc(Nc4nc(Cl)ncc4C)c3)nc(=O)c2c(OC)c1OC : reported melting point = ?
## Output 225.9 to 227 °C

----------
Here the recorded melting point is given for each entry.
Structures can show the parent of a compound that is named as a salt.

Known results for compounds:
compound: COc1cc2[nH]c(N(C)Cc3cc(N(C)C4=NCCC4)ccc3F)nc(=O)c2c(O)c1OC [Example 211]
melting point: 264.9 to 267 °C
--
compound: COc1cc2[nH]c(N(C)Cc3cccc(C(=O)O)c3)nc(=O)c2c(C)c1OC [Example 134]
melting point: 283.1 to 286.2 °C
--
compound: COCCCNc1cccc(CN(C)c2nc(=O)c3c(OC)c(OC)c(OC)cc3[nH]2)c1 (as salt: HCl) [Example 188]
melting point: 207 to 209.1 °C
--
compound: CNCC(=O)N(C)C(C)c1cccc(CN(C)c2nc(=O)c3c(C)c(OC)c(OC)cc3[nH]2)c1 (centres unmarked) [Example 52]
melting point: 118.1 to 120.8 °C
--
compound: COc1cc2[nH]c(N(C)Cc3cccc(-c4ncc[nH]4)c3)nc(=O)c2c(C)c1OC [Example 248]
melting point: 255.5 to 258.9 °C

## Input Entry COc1cc2[nH]c(N(C)Cc3cccc(-n4cnc(C)c4)c3)nc(=O)c2c(C)c1OC [Example 230] : reported melting point = ?
## Output 245 to 249.5 °C

## Input Entry COc1cc2nc(N(C)Cc3cccc(OCCO)c3)[nH]c(=O)c2c(OC)c1OC [Example F-1] : reported melting point = ?
## Output 146 to 147.5 °C

## Input Entry COc1cc2[nH]c(N(C)Cc3ccc(CN4CCC(O)C4)cc3)nc(=O)c2c(C)c1OC (centres unmarked) : reported melting point = ?
## Output 166 to 169 °C

----------
Where a name gives a salt, the structure may show the parent alone.
Here the recorded melting point is given for each entry.

Known results for compounds:
compound: COc1cc2[nH]c(N(Cc3ccccc3)C(C)C)nc(=O)c2cc1OC
quantityName: melting point
measuredResult: 168 to 170.5 °C
--
compound: COc1cc2[nH]c(N(C)Cc3cccc(/N=C4/CCCN4C)c3)nc(=O)c2c(OC)c1OC
quantityName: melting point
measuredResult: 130 to 133 °C
--
compound: COc1cc2[nH]c(N(C)Cc3cccc(/N=C(\C(C)C)N(C)C)c3)nc(=O)c2c(OC)c1OC
quantityName: melting point
measuredResult: 148 to 150 °C
--
compound: CCN1CCN(c2cccc(CN(C)c3nc(=O)c4c(OC)c(OC)c(OC)cc4[nH]3)c2)C1=O
quantityName: melting point
measuredResult: 200.3 to 200.9 °C
--
compound: COc1cc2[nH]c(N(C)Cc3cccc(N=C4N(C)CCN4C)c3)nc(=O)c2c(C)c1OC
quantityName: melting point
measuredResult: 200.2 to 204.4 °C
--
compound: COc1cc2[nH]c(N(C)Cc3cccc(N)c3)nc(=O)c2c(OC)c1OC
quantityName: melting point
measuredResult: 225 to 226.5 °C
--
compound: COc1cc2nc(N(C)Cc3cccc(N4CCCC4=O)c3)[nH]c(=O)c2c(OC)c1OC
quantityName: melting point
measuredResult: 165.5 to 166.5 °C
--
compound: CCc1c(OC)c(OC)cc2[nH]c(N(C)Cc3cccc(N=C4N(C)CCN4C)c3)nc(=O)c12 (as salt: salt)
quantityName: melting point
measuredResult: 212.5 to 219.9 °C
--
compound: COc1cc2[nH]c(N(C)Cc3cccc(NCc4ncc[nH]4)c3)nc(=O)c2c(OC)c1OC
quantityName: melting point
measuredResult: 125 to 131 °C
--
compound: COc1cc2[nH]c(N(C)Cc3cccc(N(CCO)CCO)c3)nc(=O)c2c(OC)c1OC
quantityName: melting point
measuredResult: 138.1 to 141 °C

## Input Entry COc1cc2[nH]c(N(C)Cc3cccc(OCS(C)(=O)=O)c3)nc(=O)c2c(OC)c1OC : reported melting point = ?
## Output 183.9 to 185.4 °C

## Input Entry COc1cc2[nH]c(N(C)Cc3cccc(N(C)S(=O)(=O)N(C)C)c3)nc(=O)c2c(C)c1OC : reported melting point = ?
## Output 160 to 161.7 °C

## Input Entry COc1cc2[nH]c(N(C)Cc3cccc(O)c3)nc(=O)c2c(C)c1OC : reported melting point = ?
## Output 252.9 to 254.35 °C

## Input Entry COc1cc2[nH]c(N(C)Cc3cccc(NS(=O)(=O)N(C)C)c3)nc(=O)c2c(C)c1OC : reported melting point = ?
## Output 195.3 to 199 °C

## Input Entry CNCc1cccc(CNc2nc(=O)c3c(C)c(OC)c(OC)cc3[nH]2)c1 : reported melting point = ?
## Output 142.5 to 142.9 °C

## Input Entry CCN(CCOC)Cc1ccc(CN(C)c2nc(=O)c3c(OC)c(OC)c(OC)cc3[nH]2)cc1 : reported melting point = ?
## Output 120 to 122.4 °C

Reference source for all entries: patent US7244738B2
